Please provide measured IC50 for the entries that follow.
tested.on: BRD4-BD1 (Homo sapiens (Human))
assay.details: AlphaLisa bromodomain binding assay, BRD4-BD1
condition.info: Table 6; read-out: BRD4(1) IC50
Give bare numbers, in nM.

Need IC50 for each of these molecules.
1. CC(C)(C)S(=O)(=O)Nc1cccc(Nc2nc(NC3CCNCC3)nc3sccc23)c1 [drawing 159]
2. CN1CCN(c2ccc(Nc3ccc4ccn(-c5cccc(NS(=O)(=O)C(C)(C)C)c5)c4n3)cc2)CC1
3. Cc1cnc(Nc2ccc(N3CCN(C)CC3)c(F)c2)nc1Nc1ccc2c(c1)N(S(=O)(=O)C(C)(C)C)CC2 [drawing 235]
4. CC(C)(C)S(=O)(=O)Nc1cc(-n2ccc3cnc(Nc4ccc(N5CCN(S(C)(=O)=O)CC5)c(F)c4)nc32)ccc1F

## Output
1. 344
2. 10000
3. 155
4. 1400

====

tested.on: JAK2 (Homo sapiens (Human))
Sequence (O60674 whole entry): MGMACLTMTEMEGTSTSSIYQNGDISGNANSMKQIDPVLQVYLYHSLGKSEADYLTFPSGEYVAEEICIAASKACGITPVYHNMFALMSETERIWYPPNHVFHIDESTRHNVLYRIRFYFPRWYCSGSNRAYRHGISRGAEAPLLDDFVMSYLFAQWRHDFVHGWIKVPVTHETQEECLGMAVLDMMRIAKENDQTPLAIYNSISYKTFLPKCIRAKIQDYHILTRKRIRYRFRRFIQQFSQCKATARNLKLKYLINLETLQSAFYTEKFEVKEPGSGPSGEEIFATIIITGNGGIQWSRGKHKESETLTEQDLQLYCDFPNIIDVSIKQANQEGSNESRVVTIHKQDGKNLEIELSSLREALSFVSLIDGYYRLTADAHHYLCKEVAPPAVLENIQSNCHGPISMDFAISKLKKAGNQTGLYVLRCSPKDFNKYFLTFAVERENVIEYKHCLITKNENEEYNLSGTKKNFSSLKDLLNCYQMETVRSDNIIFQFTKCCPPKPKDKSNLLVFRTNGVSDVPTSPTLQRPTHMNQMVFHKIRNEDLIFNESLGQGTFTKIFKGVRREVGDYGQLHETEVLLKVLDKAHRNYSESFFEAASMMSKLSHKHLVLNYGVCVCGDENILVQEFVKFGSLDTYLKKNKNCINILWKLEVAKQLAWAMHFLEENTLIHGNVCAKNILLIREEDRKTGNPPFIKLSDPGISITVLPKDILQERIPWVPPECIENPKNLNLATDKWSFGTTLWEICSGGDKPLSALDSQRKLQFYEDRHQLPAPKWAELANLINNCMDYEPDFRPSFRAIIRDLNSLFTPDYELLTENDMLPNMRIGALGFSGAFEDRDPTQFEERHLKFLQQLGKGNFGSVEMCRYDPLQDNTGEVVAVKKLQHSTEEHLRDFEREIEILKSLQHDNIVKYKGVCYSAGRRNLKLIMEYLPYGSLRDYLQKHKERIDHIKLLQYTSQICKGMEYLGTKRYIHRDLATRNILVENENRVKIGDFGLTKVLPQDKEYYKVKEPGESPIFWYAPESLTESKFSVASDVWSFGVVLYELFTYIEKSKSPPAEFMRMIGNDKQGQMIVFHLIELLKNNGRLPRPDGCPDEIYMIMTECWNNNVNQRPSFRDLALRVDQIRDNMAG
assay.details: HTRF kinase assay, JAK2
Format: biochemical
condition.info: Table 6
readout: pIC50
Give bare numbers, as −log10 of the molar value.

# compound, quantitative.result
records = [
    ("CN(C)C1CCN2c3ccc(Nc4ncc5ccn(-c6cccc(NS(=O)(=O)C(C)(C)C)c6)c5n4)cc3CC2C1 (stereo not shown) [drawing 444]", 8.10),
]

Need pIC50 for each of these compounds.
1. CC(C)(C)S(=O)(=O)N1CCc2ccc(-n3ccc4cnc(Nc5ccc(N6CCNCC6)cc5)nc43)cc21
2. CNC1CCN(c2ccc(Nc3ncc4ccn(-c5cccc(NS(=O)(=O)C(C)(C)C)c5)c4n3)cc2)C1 (stereo not shown)
3. CN1CCN(c2ccc(Nc3ncc4ccn(-c5cccc(CNS(=O)(=O)C(C)(C)C)c5)c4n3)cc2)CC1
4. CN(C)C1CCN(c2ccc(Nc3ncc4ccn(-c5cccc(NS(=O)(=O)C(C)(C)C)c5)c4n3)cc2)CC1 [drawing 409]
5. CC(C)(C)S(=O)(=O)Nc1cccc(-n2ccc3cnc(Nc4ccc(N5CCNCC5)c(F)c4)nc32)c1 [drawing 431]
6. CN(C)C1CCN(c2ccc(Nc3ncc4ccn(-c5ccc(F)c(NS(=O)(=O)C(C)(C)C)c5)c4n3)cc2F)CC1 [drawing 408]
7. Cc1ccc(-n2ccc3cnc(Nc4ccc(N5CCNCC5)cc4)nc32)cc1NS(=O)(=O)C(C)(C)C

## Output
7.40
7.77
8.52
8.19
8.02
7.37
6.75

Need pIC50 for each of these compounds.
1. Cc1cnc(Nc2ccc(N3CCN(C)CC3)cc2)nc1Nc1cccc(NS(=O)(=O)C(C)(C)C)c1 [drawing 375]
2. CN(C)C1CCN(c2ccc(Nc3ncc4ccn(-c5cccc(NS(=O)(=O)C(C)(C)C)c5)c4n3)cc2)CC1 [drawing 317]
3. CN1CCN2c3ccc(Nc4ncc5ccn(-c6ccc(F)c(NS(=O)(=O)C(C)(C)C)c6)c5n4)cc3CC2C1 (stereo not shown)
4. COc1cc(Nc2ncc3ccn(-c4cccc(NS(=O)(=O)C5CC5)c4)c3n2)ccc1N1CCN(C)CC1
5. CN1CCN(c2ccc(Nc3cc(Nc4cccc(NS(=O)(=O)C(C)(C)C)c4)c4sccc4n3)cc2)CC1
6. CC(C)(C)S(=O)(=O)Nc1cc(-n2ccc3cnc(Nc4ccc(N5CCC(C(=O)O)CC5)c(F)c4)nc32)ccc1F
7. CC(C)(C)S(=O)(=O)Nc1cccc(-c2csc3cnc(Nc4ccc(N5CCNCC5)c(F)c4)nc23)c1
8. CNC1CCN(c2ccc(Nc3ncc4ccn(-c5cccc(NS(=O)(=O)C(C)(C)C)c5)c4n3)cc2F)CC1

## Output
1: 8.03; 2: 8.14; 3: 6.86; 4: 7.82; 5: 5.33; 6: 6.92; 7: 8.70; 8: 8.22
